# Tested on: ovarian cancer OVCAR cells (wild KRAS)
# Test: Cell viability assay in 2D cell culture (CellTiter-Glo), OVCAR
# Format: cell-based
# Assay conditions: 96 h, Compound I-7 not present, highest selumetinib concentration 50 μM
Property measured: pEC50
Note on units: pEC50 is unitless, being -log10 of a concentration expressed in mol/L.

Measured pEC50 of `Cn1cnc2c(F)c(Nc3ccc(Br)cc3Cl)c(C(=O)NOCCO)cc21` : 3.62

* * *

# Test system: NSCLC A549 cells (KRAS-G12S)
# Test: Cell viability assay in 2D cell culture (CellTiter-Glo), A549
# Assay conditions: read-out: EC50 for selumetinib; A549, 96 h, Compound I-7 not present
Property measured: EC50 (nM)
Give the quantity in nM, number only.

The molecule listed as Cn1cnc2c(F)c(Nc3ccc(Br)cc3Cl)c(C(=O)NOCCO)cc21 [selumetinib] shows EC50 equal to 2350

* * *

# Tested on: NSCLC H23 cells (KRAS-G12C)
# Test: Cell viability assay in 2D cell culture (CellTiter-Glo), H23
# Assay conditions: Homo sapiens, NCI-H23, 96 h, read-out: EC50 for trametinib, H23 2D, 96 h, Compound I-7 present at 0.12 μM
Property measured: EC50 (nM)
Report the value in nM with no unit label.

The reported NSCLC H23 cells (KRAS-G12C) EC50 of CC(=O)Nc1cccc(-n2c(=O)n(C3CC3)c(=O)c3c(Nc4ccc(I)cc4F)n(C)c(=O)c(C)c32)c1 [trametinib] is 15.5

* * *

# Tested on: NSCLC H1975 cells (wild-type KRAS)
# Test: Cell viability assay in 2D cell culture (CellTiter-Glo), H1975
# Type: cell-based
# Assay conditions: Homo sapiens, NCI-H1975, 96 h, H1975, 96 h, Compound II-1 present at 1 μM; read-out: EC50 for selumetinib
Property measured: EC50
Write down the value, and be sure its unit follows.

EC50 measured on `Cn1cnc2c(F)c(Nc3ccc(Br)cc3Cl)c(C(=O)NOCCO)cc21` = 0.13 µM

* * *

# System: ovarian cancer OVCAR cells (wild KRAS)
# Test: Cell viability assay in 2D cell culture (CellTiter-Glo), OVCAR
# Format: cell-based
# Assay conditions: 96 h, Compound I-7 present, read-out: EC50 for selumetinib
pEC50: −log10 of the molar value.
Property measured: pEC50

Response field pEC50 (ovarian cancer OVCAR cells (wild KRAS)) for item `Cn1cnc2c(F)c(Nc3ccc(Br)cc3Cl)c(C(=O)NOCCO)cc21` : > 7.00
